For each entry below, report its EC50 value.
study target: WT LasR (Pseudomonas aeruginosa, UniProt P25084)
method summary: E. coli lasB-lux reporter assay, WT LasR

Below is a list of compounds. For each, state its recorded EC50.
1. CS(=O)(=O)c1cccc(OCCCC(=O)N[C@H]2C[C@@H]3C[C@@H]3C2=O)c1 (relative stereo) [BB0126]
2. O=C(CCCOc1cccc(Br)c1)N[C@H]1C[C@@H]2C[C@@H]2C1=O (relative stereo) [BB0020]

Response line:
> 3100 nM
6 nM

---

For each entry below, report its EC50 value.
study target: LasR T75V/Y93F/A127W (Pseudomonas aeruginosa, UniProt P25084, A127W/T75V/Y93F)
method summary: E. coli lasB-lux reporter assay, LasR T75V/Y93F/A127W
Assay type: cell-based
Give bare numbers, in nM.

CS(=O)(=O)c1cccc(OCCCC(=O)N[C@H]2C[C@@H]3C[C@@H]3C2=O)c1 (relative stereo) : 50

Prompt line: // query EC50 value for entry O=C(CCCOc1cccc(Br)c1)N[C@H]1C[C@@H]2C[C@@H]2C1=O (relative stereo)
Response line: 20

---

study target: LasR R61A (Pseudomonas aeruginosa, UniProt P25084, R61A)
Sequence (P25084 1-239 R61A): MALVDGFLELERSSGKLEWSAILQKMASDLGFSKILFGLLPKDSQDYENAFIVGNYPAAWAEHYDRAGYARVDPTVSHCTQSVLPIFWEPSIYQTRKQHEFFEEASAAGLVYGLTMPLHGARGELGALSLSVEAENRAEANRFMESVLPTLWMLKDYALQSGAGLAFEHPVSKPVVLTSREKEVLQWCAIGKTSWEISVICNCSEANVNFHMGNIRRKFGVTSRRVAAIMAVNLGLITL
method summary: E. coli lasB-lux reporter assay, LasR R61A
experimental readout: EC50

Prompt line: // query EC50 value for entry CS(=O)(=O)c1cccc(OCCCC(=O)N[C@H]2C[C@@H]3C[C@@H]3C2=O)c1 (relative stereo)
Response line: > 10 µM

---

study target: LasR Y93F/A127W (Pseudomonas aeruginosa, UniProt P25084, A127W/Y93F)
Sequence (P25084 1-239 Y93F/A127W): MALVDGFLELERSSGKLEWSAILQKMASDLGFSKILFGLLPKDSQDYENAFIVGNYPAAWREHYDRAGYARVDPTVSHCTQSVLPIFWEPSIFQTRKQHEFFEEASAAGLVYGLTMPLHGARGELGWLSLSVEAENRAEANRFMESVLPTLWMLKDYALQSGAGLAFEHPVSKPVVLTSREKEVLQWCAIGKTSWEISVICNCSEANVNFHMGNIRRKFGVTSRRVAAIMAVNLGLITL
method summary: E. coli lasB-lux reporter assay, LasR Y93F/A127W
Format: cell-based
experimental readout: EC50 (nM)
Numbers only, in nM.

Prompt line: // query EC50 value for entry O=C(CCCOc1cccc(Br)c1)N[C@H]1C[C@@H]2C[C@@H]2C1=O (relative stereo)
Response line: 100
